Listed here are molecules together with their documented LD50.
Test: acute toxicity (LD50) in the mouse
Conditions: in vivo, ip

Examples with their reported LD50 follow.
[[record]]
compound_structure_string = "Cl.Oc1c(Br)cc(Br)cc1CN[C@H]1CC[C@H](O)CC1"
value_type = "LD50"
observed = "> 800 mg/kg"

[[record]]
compound_structure_string = "Cl.Nc1c(Br)cc(Br)cc1CN[C@H]1CC[C@H](O)CC1"
value_type = "LD50"
observed = "268 mg/kg"


Proceeding to the next molecule to report its LD50.
# query: LD50 of entry CN(Cc1cc(Br)cc(Br)c1N)C1CCCCC1.Cl > 400 mg/kg

###

Assay: physchem
Conditions: water
value-type: solubility (mg/mL)
I only need the number, in mg/mL, no unit after it.

# query: solubility of entry Cl.Nc1c(Br)cc(Br)cc1CN[C@H]1CC[C@H](O)CC1 16.6
